- testedSystem: hCGRP (human calcitonin gene-related peptide) receptor (Homo sapiens, UniProt O60894+Q16602)
- Construct: SK-N-MC neuroblastoma cells (ATCC® HTB-10™) that endogenously express the hCGRP receptor; host or cells: SK-N-MC neuroblastoma cells
- Sequence (Q16602 23-461): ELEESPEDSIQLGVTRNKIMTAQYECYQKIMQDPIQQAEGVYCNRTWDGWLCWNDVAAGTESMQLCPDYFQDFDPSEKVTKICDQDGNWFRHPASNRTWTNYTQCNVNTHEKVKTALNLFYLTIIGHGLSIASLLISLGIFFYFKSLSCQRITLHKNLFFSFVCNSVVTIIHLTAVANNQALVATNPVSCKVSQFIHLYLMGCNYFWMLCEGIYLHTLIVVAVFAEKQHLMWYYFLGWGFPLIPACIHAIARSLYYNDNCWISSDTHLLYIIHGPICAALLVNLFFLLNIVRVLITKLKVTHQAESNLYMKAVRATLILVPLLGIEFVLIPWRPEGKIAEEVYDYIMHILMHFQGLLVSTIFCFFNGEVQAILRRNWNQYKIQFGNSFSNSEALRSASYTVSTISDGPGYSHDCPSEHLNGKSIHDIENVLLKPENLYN
- Sequence (O60894 27-148): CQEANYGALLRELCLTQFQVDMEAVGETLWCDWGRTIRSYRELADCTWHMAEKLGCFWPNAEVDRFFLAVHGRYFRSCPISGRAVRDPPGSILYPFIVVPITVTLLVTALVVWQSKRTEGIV
- procedureText: Inhibition of cAMP production by CGRP receptor antagonists (HTRF) in SK-N-MC cells
- Format: cell-based
- studyConditions: SK-N-MC cells endogenously expressing hCGRP receptor; human CGRP 0.8 nM as agonist; Kb=IC50/[1+([Agonist]/EC50)]; mean ± SEM
measuredAttribute: Kb

Cc1cc(C#N)nc(CNC(=O)c2ccc([C@@H](C)[C@]3(C)CC(=O)NC3=O)cc2)c1 = 1.51 nM
Cc1cc(CNC(=O)c2ccc([C@@H](C)[C@]3(C)CC(=O)NC3=O)cc2)cc(C)n1 = 0.546 nM
Cc1cc(CNC(=O)c2ccc([C@@H](C)[C@]3(C)CC(=O)NC3=O)cc2)cc(C(C)C)n1 = 0.718 nM
Cc1cc(CNC(=O)c2ccc([C@@H](C)[C@]3(C)CC(=O)NC3=O)cn2)cc(C)n1 = 1.25 nM
Cc1cc(C)nc(CNC(=O)c2ccc([C@@H](C)[C@]3(C)CC(=O)NC3=O)cc2)c1 = 2.22 nM
Cc1cc(CNC(=O)c2ccc([C@@H](C)[C@]3(C)CC(=O)NC3=O)cc2)nc(C2CC2)c1 = 0.582 nM
Cc1cc(CNC(=O)c2ccc([C@@H](C)[C@]3(C)CC(=O)NC3=O)cc2)cc(C2CC2)n1 = 0.375 nM
Cc1cc(CNC(=O)c2ccc([C@@H](C)[C@]3(C)CC(=O)NC3=O)cn2)cc(C2CC2)n1 = 1.15 nM

====

- testedSystem: hCGRP (human calcitonin gene-related peptide) receptor (Homo sapiens, UniProt O60894+Q16602)
- Construct: SK-N-MC neuroblastoma cells (ATCC® HTB-10™) that endogenously express the hCGRP receptor; host or cells: SK-N-MC neuroblastoma cells
- procedureText: Inhibition of cAMP production by CGRP receptor antagonists (HTRF) in SK-N-MC cells
- Assay type: cell-based
- studyConditions: SK-N-MC cells endogenously expressing hCGRP receptor; human CGRP 0.8 nM as agonist; Kb=IC50/[1+([Agonist]/EC50)]; mean ± SEM
measuredAttribute: Kb (nM)

Cc1cc(CNC(=O)c2ccc([C@@H](C)[C@]3(C)CC(=O)NC3=O)cc2)cc(C#N)n1 [Example 4] = 23.5
Cc1cc(CNC(=O)c2ccc([C@@H](C)[C@]3(C)CC(=O)NC3=O)cc2)cc(C2CCCC2)n1 [Example 12] = 0.295
Cc1cc(CNC(=O)c2ccc([C@@H](C)[C@]3(C)CC(=O)NC3=O)cc2)cc(C2CCC2)n1 [Example 11] = 0.11
CCc1cc(CNC(=O)c2ccc([C@@H](C)[C@]3(C)CC(=O)NC3=O)cc2)cc(C)n1 [Example 10] = 0.6
